biological target: human ether-à-go-go-related gene (hERG) potassium channel (human, UniProt Q12809); assay: primary screen, population patch clamp on CHO cells stably expressing hERG; higher = less effect of the substance;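 also: peak tail current of the secondary pulse compared with the same well before compound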
Sequence (Q12809 whole entry, looked up): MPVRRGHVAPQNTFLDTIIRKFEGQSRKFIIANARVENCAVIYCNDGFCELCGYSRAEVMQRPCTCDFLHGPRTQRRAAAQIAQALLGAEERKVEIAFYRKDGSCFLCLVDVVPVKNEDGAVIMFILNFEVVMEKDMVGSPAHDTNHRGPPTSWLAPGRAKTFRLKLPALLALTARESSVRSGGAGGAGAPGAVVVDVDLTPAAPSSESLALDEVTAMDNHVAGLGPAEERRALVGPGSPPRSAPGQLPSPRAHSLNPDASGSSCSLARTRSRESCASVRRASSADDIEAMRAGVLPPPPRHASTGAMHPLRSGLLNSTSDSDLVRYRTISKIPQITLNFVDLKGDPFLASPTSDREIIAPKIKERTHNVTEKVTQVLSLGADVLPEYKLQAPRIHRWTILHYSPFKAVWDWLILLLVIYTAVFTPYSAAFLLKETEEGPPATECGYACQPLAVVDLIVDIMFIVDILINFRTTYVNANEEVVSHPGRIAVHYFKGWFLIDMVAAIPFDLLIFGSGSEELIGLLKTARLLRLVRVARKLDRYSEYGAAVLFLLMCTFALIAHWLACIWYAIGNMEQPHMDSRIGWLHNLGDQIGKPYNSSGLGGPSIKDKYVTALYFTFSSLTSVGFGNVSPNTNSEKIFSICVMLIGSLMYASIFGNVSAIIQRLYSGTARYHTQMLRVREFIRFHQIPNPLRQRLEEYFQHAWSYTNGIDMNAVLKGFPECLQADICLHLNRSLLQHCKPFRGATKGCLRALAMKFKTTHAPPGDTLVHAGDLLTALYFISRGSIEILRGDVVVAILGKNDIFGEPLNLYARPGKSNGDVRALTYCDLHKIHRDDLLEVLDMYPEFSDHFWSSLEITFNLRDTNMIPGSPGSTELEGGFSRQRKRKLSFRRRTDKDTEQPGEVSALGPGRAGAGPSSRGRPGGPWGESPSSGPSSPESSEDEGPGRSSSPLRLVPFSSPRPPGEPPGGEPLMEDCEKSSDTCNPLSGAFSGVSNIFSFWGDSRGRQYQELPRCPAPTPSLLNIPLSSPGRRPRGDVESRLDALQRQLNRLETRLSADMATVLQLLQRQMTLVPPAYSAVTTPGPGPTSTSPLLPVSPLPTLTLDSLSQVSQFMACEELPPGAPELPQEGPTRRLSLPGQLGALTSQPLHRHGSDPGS
Screen size: about 310,000 compounds; about 14,000 (4.5%) showed an effect of 50% or more. Effects have a minus sign here. The full list was thinned out, with strong results kept by preference.
Endpoint Name: hERG current change (%, negative = inhibition) at 10uM (%)

>>> numeric_value("CNc1cc(C)c(C#N)c2nc3ccccc3n12")
-8.75
>>> numeric_value("Cc1cccc(N2CCN(C(=O)c3ccc(Cl)c(S(=O)(=O)NCc4ccco4)c3)CC2)c1C")
4.75
>>> numeric_value("CCCCNC(=O)CCCCCNS(=O)(=O)c1ccc(OC)cc1")
13.8
>>> numeric_value("CCOC(=O)N1CCN(C(=O)c2ccc(S(=O)(=O)NCc3ccco3)cc2)CC1")
-2
>>> numeric_value("O=C(c1ccc(S(=O)(=O)NCc2ccco2)cc1)N1CCN(Cc2ccc3c(c2)OCO3)CC1")
-32.5
>>> numeric_value("O=C(NCc1ccco1)Nc1ccc2snnc2c1")
2.51
>>> numeric_value("c1ccc2oc(C3=NNC(=NC4CC4)SC3)cc2c1")
-58.5
>>> numeric_value("O=C(Cn1cccc1C(=O)c1ccccc1)NCCN1CCCCCC1")
-35.3
>>> numeric_value("CC(=O)OCCCN1C(=O)c2cccc3cc(Br)cc(c23)C1=O")
4.74
>>> numeric_value("Cc1sc2ncnc(NCCN3CCOCC3)c2c1C.O=C(O)C(=O)O")
-22.4
>>> numeric_value("c1nc(Nc2ccc(N3CCOCC3)cc2)c2ccsc2n1")
-7.59
>>> numeric_value("COc1ccc(C(=O)NNC(=O)C(=O)N2CCCCC2)cc1OC")
59.5
>>> numeric_value("CCOc1ccc(N/C=C/C(=O)c2ccc(OC)cc2)c([N+](=O)[O-])c1")
24.5
>>> numeric_value("CCNc1nc(=S)nc(NC(C)C)[nH]1")
29.6
>>> numeric_value("Cc1sc2ncnc(NCC(C)(C)N3CCOCC3)c2c1C")
-71.7
>>> numeric_value("COc1ccc(C(=O)Nc2ccnn2C2CCN(Cc3ccncc3)CC2)cc1")
-8.86
>>> numeric_value("c1ccc(CN=C2NN=C(c3cc4ccccc4o3)CS2)cc1")
-16.3
>>> numeric_value("CC1CCCN(c2nc(NCc3ccco3)nc(N)c2[N+](=O)[O-])C1 (centres unmarked)")
-54.3
>>> numeric_value("COc1ccc(N2CCN(C(=O)c3ccc(S(=O)(=O)NCc4ccco4)cc3)CC2)cc1")
-54.7
>>> numeric_value("COC(C(=O)Nc1ccnn1C1CCN(Cc2ccc(C)o2)CC1)c1ccccc1 (centres unmarked)")
-2.65
>>> numeric_value("Cc1c(Cl)cccc1NC(=O)CNC(=O)c1ccc(F)cc1")
27.4
>>> numeric_value("O=C1C(O)CC2c3ccccc3CC3(CCCC3)N12 (centres unmarked)")
6.83
>>> numeric_value("CN(C)S(=O)(=O)c1ccc(N2CCCC2)c(C(=O)Nc2ccccc2F)c1")
-14.7
>>> numeric_value("CC1CC(C)CN(c2nc(NCc3ccco3)nc(N)c2[N+](=O)[O-])C1 (centres unmarked)")
-27.4
>>> numeric_value("Cc1ccccc1C(=O)c1cccn1CC(=O)NCCCN1CCCCC1")
-41.9
>>> numeric_value("COc1ccc2c(C)cc(SC3CCOC3=O)nc2c1 (centres unmarked)")
-0.712
>>> numeric_value("O=C(NCc1ccccc1)C1CCCN(S(=O)(=O)c2cccs2)C1 (centres unmarked)")
-0.56
>>> numeric_value("CC1CCN(C(=S)Nc2cccc(S(=O)(=O)N(C)C)c2)CC1")
11.1
>>> numeric_value("N#Cc1ccc(CN2CCN(C(=O)c3ccc(S(=O)(=O)NCc4ccco4)cc3)CC2)cc1")
-59.8
>>> numeric_value("Cc1sc2ncnc(NCC3(N4CCOCC4)CCCCC3)c2c1C")
-71.1
>>> numeric_value("C/C=C(\\C)CN1CCC(n2nccc2NC(=O)c2ccc(OC)cc2)CC1")
2.92
>>> numeric_value("COc1ccc(NC(=O)CNC(=O)C2CCCCC2)cc1")
18.1
>>> numeric_value("O=C(Cn1cccc1C(=O)c1ccccc1)NCCCN1CCc2ccccc2C1")
-74.1
>>> numeric_value("CC(C)C(=O)Nc1cccc(NC(=S)NC(=O)c2ccccc2Cl)c1")
-9.02
>>> numeric_value("O=C(c1ccc(S(=O)(=O)NCc2ccco2)cc1)N1CCN(c2ccc(F)cc2)CC1")
-31.5
>>> numeric_value("Cc1sc2ncnc(NCCCN3CCCC3=O)c2c1C")
3.27
>>> numeric_value("Cc1ccccc1C(=O)c1cccn1CC(=O)NCCCN1CCc2ccccc2C1")
-78.6
>>> numeric_value("CN(C)S(=O)(=O)c1ccc(N2CCCC2)c(C(=O)Nc2ccc(Br)cc2F)c1")
3.03
>>> numeric_value("Cc1ccc(C)c(OCc2cc(C(=O)N3C[C@@H](C)O[C@@H](C)C3)no2)c1")
4.95
>>> numeric_value("Cc1ccc(S(=O)(=O)N(C)c2ccc(OC(C)C(=O)N3CCCC3)cc2)cc1C (centres unmarked)")
-37.6
>>> numeric_value("CN(C)S(=O)(=O)c1ccc(N2CCCC2)c(C(=O)Nc2ccccc2Br)c1")
-58.3

* * *

biological target: human ether-à-go-go-related gene (hERG) potassium channel (human); experiment: primary screen, population patch clamp on CHO cells stably expressing hERG; higher = less effect of the substance;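 also: peak tail current of the secondary pulse compared with the same well before compound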
Screen size: about 310,000 compounds; about 14,000 (4.5%) showed an effect of 50% or more. Effects have a minus sign here. Only a selection was taken, and strong results are over-represented in it overall.
Endpoint Name: hERG current change (%, negative = inhibition) at 10uM (%)

>>> numeric_value("COc1ccc(C)cc1S(=O)(=O)NCCc1ccccc1")
-28.3
>>> numeric_value("O=C(C[n+]1cc(Br)cc2ccccc21)c1ccccc1.[Br-]")
-21.7
>>> numeric_value("COc1ccc(C(=O)C[n+]2cccc(C)c2C)cc1[N+](=O)[O-].[Br-]")
-13.2
>>> numeric_value("O=C(C[n+]1cccc2ccccc21)c1ccc(NC(=O)c2ccccc2)cc1.[Br-]")
8.45
>>> numeric_value("O=C(C[n+]1cc2ccccc2c2ccccc21)c1ccccc1.[Br-]")
-73.8

* * *

molecular target: human ether-à-go-go-related gene (hERG) potassium channel (human, UniProt Q12809); assay: primary screen, population patch clamp on CHO cells stably expressing hERG; higher = less effect of the substance;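 also: peak tail current of the secondary pulse compared with the same well before compound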
In all, about 310,000 compounds went through this assay and about 14,000 (4.5%) showed an effect of 50% or more. The effect is printed as a negative number. The full list was thinned out, with strong results kept by preference.
Classify by measured hERG current change (%, negative = inhibition) at 10uM: Fulfilled if it is equal to or exceeds -60%, Not fulfilled if it is smaller.

>>> assigned_label("Cc1cc(C)c2sc(N(CCCN(C)C)C(=O)COc3ccc(Cl)cc3)nc2c1.Cl")
"Fulfilled"
>>> assigned_label("COc1ccc(/C=C/CN2CCC(CO)(Cc3ccccc3Cl)CC2)cc1")
"Not fulfilled"
>>> assigned_label("OCC1(Cc2ccccc2Cl)CCN(C/C=C/c2ccccc2)CC1")
"Not fulfilled"
>>> assigned_label("CCC(C)CN1CCC(CO)(Cc2ccccc2Cl)CC1 (stereo not shown)")
"Fulfilled"
>>> assigned_label("CN(C)CCN(C(=O)c1ccccc1Cl)c1nc2c(Cl)cccc2s1.Cl")
"Fulfilled"
>>> assigned_label("COc1ccc2sc(N(CCCN(C)C)C(=O)c3nc4ccccc4s3)nc2c1.Cl")
"Fulfilled"
>>> assigned_label("CN(C)CCCN(C(=O)COc1ccc(Cl)cc1)c1nc2c(F)cccc2s1.Cl")
"Not fulfilled"
>>> assigned_label("O=C(C1CCCCC1)N1CCC(CO)(Cc2ccccc2Cl)CC1")
"Fulfilled"
>>> assigned_label("CC(C)(C)NC(=O)N1CCC(CO)(Cc2ccccc2Cl)CC1")
"Fulfilled"

* * *

target: human ether-à-go-go-related gene (hERG) potassium channel (human, UniProt Q12809); experiment: primary screen, population patch clamp on CHO cells stably expressing hERG; higher = less effect of the substance;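 also: peak tail current of the secondary pulse compared with the same well before compound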
The whole screen tested about 310,000 compounds, of which about 14,000 (4.5%) showed an effect of 50% or more. Effects have a minus sign here. Only a selection was taken, and strong results are over-represented in it overall.
Classify by measured hERG current change (%, negative = inhibition) at 10uM: class 1 if it is equal to or exceeds -10%, class 0 if it is smaller.

>>> assigned_label("COc1ccc(Cl)cc1C(=O)C1CCCN(CCO)C1 (stereo not shown)")
"class 0"
>>> assigned_label("COc1cc2c(cc1C1NC(=S)NC(C)=C1C(N)=O)CCCC2 (stereo not shown)")
"class 1"
>>> assigned_label("COc1ccccc1NC(=O)c1ccc(NS(=O)(=O)c2ccc(F)c(F)c2F)cc1")
"class 1"
>>> assigned_label("O=C(C1=C[C@@H](c2coc3ccccc3c2=O)C[C@@H](OCc2ccc(CO)cc2)O1)N1CCN(Cc2ccccc2)CC1")
"class 0"
>>> assigned_label("CC1CN(C(=O)c2cccc(COc3ccccc3Cl)c2)CC(C)O1 (stereo not shown)")
"class 0"
>>> assigned_label("Cc1cc(NC(=O)CSc2ccccn2)no1")
"class 1"
>>> assigned_label("CCOc1cccc(CN2CCCC(C(=O)Nc3ccc(-c4ccn[nH]4)cc3)C2)c1O (stereo not shown)")
"class 0"
>>> assigned_label("Cc1cc(C)nc(N/N=C/c2c(CO)cnc(C)c2O)n1")
"class 0"
>>> assigned_label("O=C(CCc1ccccc1)Nc1ccccc1C(=O)NCc1ccco1")
"class 1"
>>> assigned_label("Cc1cc(NC(=O)COC(=O)[C@@H](NS(=O)(=O)c2ccccc2)C(C)C)no1")
"class 1"
>>> assigned_label("COc1ccc(CN2CCCC(C(=O)c3cccc(C(F)(F)F)c3)C2)cc1O (stereo not shown)")
"class 0"
>>> assigned_label("CC(C)Oc1ccc(S(=O)(=O)N2CCOCC2)cc1NC(=O)C1CCCCC1")
"class 0"
>>> assigned_label("CCOc1cccc(CN2CCCC(C(=O)c3cc(Cl)ccc3OC)C2)c1O (stereo not shown)")
"class 0"
>>> assigned_label("O=C(C1=C[C@@H](c2coc3ccccc3c2=O)C[C@@H](OCc2ccc(CO)cc2)O1)N1CCCCCCC1")
"class 0"
>>> assigned_label("Cc1ccc(S(=O)(=O)NC(CC(=O)NCC2CCCO2)c2ccco2)cc1 (stereo not shown)")
"class 1"
>>> assigned_label("CN(C)S(=O)(=O)c1ccc2c(c1)Cc1cc(S(=O)(=O)N(C)C)ccc1-2")
"class 1"
>>> assigned_label("CC(=O)Oc1ccc(C(=O)Nc2ccccc2C(=O)Nc2cccc(C(=O)O)c2)cc1")
"class 1"
>>> assigned_label("CC(=O)OCc1c(C(F)(F)F)nn(C)c1Oc1cccc(C(F)(F)F)c1")
"class 1"
>>> assigned_label("C=CCOC(=O)C1=C[C@@H](c2coc3ccccc3c2=O)C[C@@H](OCc2ccc(CO)cc2)O1")
"class 0"
